B1: KRT13 (parent)
chain: TPGIDLTRVLAEMREQYEAMAERN

- Variants of: B1
- Protocol: protein stability index of a GFP-peptide fusion (GPS, HEK-293T) (PSI 1-6); higher = more stable;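 note: lentivirally expressed fusions sorted by FACS into six bins by GFP to DsRed ratio, PSI derived from sequencing read proportions per bin multiplied by bin number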
- Reported conditions: c terminus: a fixed tail appended
Attribute measured: protein stability index

input_sequence=TPGIDLTRVLAEMREQYDAMAERN value_observed=4.27
input_sequence=TPGIDLTRVLAEMREQYEAMAESN value_observed=4.56
input_sequence=TPGIDLTRVLAEMRYQYEAMAERN value_observed=2.42
input_sequence=TPGIDLTRLLAEMREQYEAMAERN value_observed=2.25
input_sequence=TPGIDLTRVLAEMREQYEAMAEPN value_observed=4.62
input_sequence=TPGIDLTRVLAEMREPYEAMAERN value_observed=4.08
input_sequence=TPGIDLTRVLAEMREQTEAMAERN value_observed=5.8
input_sequence=TPGIDLTRVLAEMREQYEAMAERC value_observed=3.08
input_sequence=TPGIDLTRVLAEMREQYEAMAERM value_observed=4.67
input_sequence=TPGIDLTRVLAEMREQYEATAERN value_observed=4.25

Request: Reported protein stability index, variant `TPGINLTRVLAEMREQYEAMAERN` : ____
Response: 3.88

Request: Reported protein stability index, variant `TPGIDLTRVLAEMREQYERMAERN` : ____
Response: 3.57

Request: Reported protein stability index, variant `TPGIDLTRNLAEMREQYEAMAERN` : ____
Response: 4.86

Request: Reported protein stability index, variant `TPGIDLTDVLAEMREQYEAMAERN` : ____
Response: 2.73

Request: Reported protein stability index, variant `TPGIDLTRVLNEMREQYEAMAERN` : ____
Response: 3.77

Request: Reported protein stability index, variant `TPGIDLTRVLAEMRHQYEAMAERN` : ____
Response: 3.45
